# ASSAYED_TARGET: Prostaglandin G/H synthase 1 (Ovis aries, UniProt P05979)
# Sequence (P05979 whole entry): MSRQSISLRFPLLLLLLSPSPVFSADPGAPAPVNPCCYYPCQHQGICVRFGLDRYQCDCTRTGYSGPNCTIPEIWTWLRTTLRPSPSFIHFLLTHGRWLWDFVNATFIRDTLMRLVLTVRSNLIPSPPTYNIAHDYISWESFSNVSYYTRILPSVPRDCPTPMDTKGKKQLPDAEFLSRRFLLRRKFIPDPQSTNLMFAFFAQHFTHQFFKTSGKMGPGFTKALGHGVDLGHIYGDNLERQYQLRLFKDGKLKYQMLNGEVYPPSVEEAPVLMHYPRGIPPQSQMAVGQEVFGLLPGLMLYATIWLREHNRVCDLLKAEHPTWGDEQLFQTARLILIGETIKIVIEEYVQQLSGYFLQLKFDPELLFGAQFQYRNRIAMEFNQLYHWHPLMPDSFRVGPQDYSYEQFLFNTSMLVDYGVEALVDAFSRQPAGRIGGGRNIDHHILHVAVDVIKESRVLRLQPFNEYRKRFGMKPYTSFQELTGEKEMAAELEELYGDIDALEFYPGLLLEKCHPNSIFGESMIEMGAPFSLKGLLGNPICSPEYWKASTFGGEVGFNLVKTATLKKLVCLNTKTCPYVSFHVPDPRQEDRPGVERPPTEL
# EXPERIMENTAL_PROTOCOL: Inhibition of ovine COX1 using arachidonic acid substrate assessed as PGE2 production ELISA method after 2 mins
READOUT_NAME: IC50 (µM)

Reference set, count: 3
>>> reported_value("CN1C/C(=C\\c2ccc(N(C)C)cc2[N+](=O)[O-])C(=O)/C(=C/c2ccc(N(C)C)cc2[N+](=O)[O-])C1")
1.22
>>> reported_value("CCOC(OCC)c1ccc(/C=C2\\CN(Cc3ccccc3)C/C(=C\\c3ccc(C(OCC)OCC)cc3)C2=O)cc1")
3.17
>>> reported_value("CN(C)c1ccc(/C=C2\\CN(Cc3ccccc3)C/C(=C\\c3ccc(N(C)C)cc3[N+](=O)[O-])C2=O)c([N+](=O)[O-])c1")
14.6

[a] CN(C)c1ccc(/C=C2\CCc3ccccc3C2=O)c([N+](=O)[O-])c1
[b] CCOC(OCC)c1ccc(/C=C/C(=O)/C=C/c2ccc(C(OCC)OCC)cc2)cc1
Enquiry: Recorded IC50 values differ for a and b ; which one is higher? Selection: enter the item's label.
Return: a

[a] CN(C)c1ccc(/C=C2/CCC/C(=C\c3ccc(N(C)C)cc3[N+](=O)[O-])C2=O)c([N+](=O)[O-])c1
[b] O=C1/C(=C/c2ccc(N3CCCC3)cc2)CC/C1=C\c1ccc(N2CCCC2)cc1
Enquiry: Input pair: a , b . Output: entry with lower IC50. Mark your answer with the label of the selected entry.
Return: a
